target_or_system: Left-right determination factor 2 (Homo sapiens) (UniProt O00292)
Sequence (O00292 whole entry, looked up): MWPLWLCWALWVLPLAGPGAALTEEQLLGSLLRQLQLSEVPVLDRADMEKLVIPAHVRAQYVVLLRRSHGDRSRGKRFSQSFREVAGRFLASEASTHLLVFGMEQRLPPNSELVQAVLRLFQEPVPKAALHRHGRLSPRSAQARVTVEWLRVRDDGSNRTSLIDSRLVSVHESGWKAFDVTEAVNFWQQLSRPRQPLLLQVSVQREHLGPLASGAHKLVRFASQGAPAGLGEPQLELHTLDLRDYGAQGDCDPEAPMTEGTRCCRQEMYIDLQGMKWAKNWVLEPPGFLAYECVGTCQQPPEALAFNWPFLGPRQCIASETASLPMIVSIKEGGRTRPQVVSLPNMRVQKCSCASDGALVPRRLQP
method: small molecules binding LEFTY2 protein – biochemical, small-molecule microarray, 635 nm fluorescence scan, primary screen (AID 1110)
setup_conditions: higher = more signal
quantity_kind: composite z-score
No unit in the answer, only the number.

COCC(=C=CC[C@H](O)c1ccccc1OCCO)C[C@H](O)COCc1ccccc1 = 0.0832

Enquiry: Using known records, supply composite z-score for `CC(C)C(=C=CC[C@H](O)c1ccccc1OCCO)C[C@H](O)c1cc(Cl)cc(Cl)c1O`
Return: 0.0124

Enquiry: Using the record for `C=CCN1C(=O)[C@]2(O[C@H](CCn3cc([C@H](O)c4ccccc4)nn3)[C@@H]([Si](C)(C)c3ccc(OC)cc3)[C@@H]2C)c2cc(NC(=O)c3ccc(OC)cc3)ccc21` , state its measured composite z-score.
Return: 0.5

Enquiry: Recall and state the measured composite z-score for `O=C1[C@H]2C=C(I)[C@H](C[C@@H]2OCCCCCCO)[C@@]12CO2` .
Return: 0.687

Enquiry: Let me know recorded composite z-score for `C=CCN1C(=O)[C@@]2(O[C@@H](CCn3cc([C@H](O)c4ccccc4)nn3)[C@H]([Si](C)(C)c3ccc(OC)cc3)[C@H]2C)c2cc(N3C(=O)c4cccc5cccc3c45)ccc21` , thanks.
Return: -0.898

Enquiry: Assign composite z-score to the following record: `C=C(COC)C(=O)CC[C@@H](OC(=O)c1ccccc1-c1ccccc1C(=O)O)c1ccc(OCCO)cc1`
Return: 0.079

Enquiry: Recall and state the measured composite z-score for O=C1C2C=CC(C(O)c3c(F)cccc3Cl)N(Nc3ccc([N+](=O)[O-])cc3)C2C(=O)N1c1ccccc1 (stereo not drawn) .
Return: 0.563

Enquiry: Using the record for `C[N+](C)(C)CCCC[C@@H]1NC(=O)[C@@H]2C[C@H](C(=O)NCc3ccc(F)cc3)[C@H](c3ccc(O)cc3)N2C1=O` , state its measured composite z-score.
Return: -0.392
